# Study target: Polyunsaturated fatty acid 5-lipoxygenase (Rattus norvegicus)
# Procedure details: Activity against LTB4 biosynthesis in the rat RPAR pleurisy model po (10 mg/kg)
# Type: functional, organism-based
Measurement name: inhibition (%)

{"Chemical smiles": "Cc1oc(-c2ccc(Cl)cc2)nc1COc1cccc(CN(O)C(N)=O)c1", "Numeric result": 47}
{"Chemical smiles": "Cc1oc(-c2ccc(C(F)(F)F)cc2)nc1COc1cccc(CN(O)C(N)=O)c1", "Numeric result": 59}
{"Chemical smiles": "NC(=O)N(O)Cc1cccc(OCc2csc(-c3ccccc3)n2)c1", "Numeric result": 40}

1 = NC(=O)N(O)Cc1cccc(OCc2csc(-c3ccc(Cl)cc3)n2)c1
2 = Cc1oc(-c2ccc(C(F)(F)F)cc2)nc1COc1ccc(CN(O)C(N)=O)cc1
3 = Cc1oc(-c2ccccc2)nc1CCOc1ccc(CN(O)C(N)=O)cc1
4 = Cc1oc(-c2ccccc2)nc1COc1cc(F)cc(CN(O)C(N)=O)c1
IN: Arrange the 4 compounds from largest to smallest inhibition. Return the labels ranked in the requested order, please.
OUT: 3, 2, 4, 1

The measured values listed here are drawn from ChEMBL document CHEMBL1129782.
